- Test system: Rattus norvegicus
- procedureSummary: Antihyperglycemic activity against streptozotocin-induced Sprague-Dawley albino rat diabetic model assessed as area under the 0 to 24 hrs blood glucose response curve (0-24 hrs AUC) at 25 mg/kg, po after 48 hrs by glucometer
- Format: functional
measurementName: Activity

>>> print(df.to_string())
                                   compound  measurementname  value
0  CC(=O)c1c(O)cc(O)c([C@@H]2O[C@H](CO)[C@@H](O)[C@H](O)[C@H]2O)c1O         Activity  20.9%
1  O=C1Oc2c(ccc(O)c2[C@@H]2O[C@H](CO)[C@@H](O)[C@H](O)[C@H]2O)/C1=C\c1ccc(O)cc1         Activity    29%
2  COC(=O)c1c(O)cc(O)c([C@@H]2O[C@H](CO)[C@@H](O)[C@H](O)[C@H]2O)c1O         Activity   2.9%
3  O=C1c2ccc(O)c([C@@H]3O[C@H](CO)[C@@H](O)[C@H](O)[C@H]3O)c2OC1(O)Cc1ccc(O)cc1 (stereo partly drawn)         Activity   7.9%

The compound identified as `O=c1c(O)c(-c2ccc(O)cc2)oc2cc(O)c([C@@H]3O[C@H](CO)[C@@H](O)[C@H](O)[C@H]3O)c(O)c12` registered its Activity at 23.5%

The compound identified as `O=c1c(O)c(-c2ccc(O)c(O)c2)oc2cc(O)c([C@@H]3O[C@H](CO)[C@@H](O)[C@H](O)[C@H]3O)c(O)c12` registered its Activity at 8.56%

The compound identified as `O=C(CCc1ccccc1)c1c(O)cc(O)c([C@@H]2O[C@H](CO)[C@@H](O)[C@H](O)[C@H]2O)c1O` registered its Activity at 26.5%

The compound identified as `OC[C@H]1O[C@@H](c2c(O)cccc2O)[C@H](O)[C@@H](O)[C@@H]1O` registered its Activity at 22.3%

====

- System: Rattus norvegicus
- procedureSummary: Antihyperglycemic activity against streptozotocin-induced Sprague-Dawley albino rat diabetic model assessed as area under the 0 to 24 hrs blood glucose response curve (0-24 hrs AUC) at 25 mg/kg, po after 48 hrs by glucometer
- Type: functional
measurementName: Activity
Field: value (include unit after the number)

In [3]: df
Out[3]:
                                   compound             system  measurementname  value
0  COc1cc(OC)c([C@@H]2O[C@H](CO)[C@@H](O)[C@H](O)[C@H]2O)c(OC)c1C(=O)/C=C/c1ccc(C(C)C)cc1  Rattus norvegicus         Activity  33.6%
1  O=C(CC(O)c1ccc(O)c(O)c1)c1ccc(O)c([C@@H]2O[C@H](CO)[C@@H](O)[C@H](O)[C@H]2O)c1O (some centres undefined)  Rattus norvegicus         Activity  19.5%
2                         CN(C)C(=N)NC(=N)N  Rattus norvegicus         Activity  24.1%

The compound identified as `OC[C@H]1O[C@@H](c2c(O)ccc3cc(Cc4ccc(O)cc4)oc23)[C@H](O)[C@@H](O)[C@@H]1O` registered its Activity at 11.2%

The compound identified as `COC(=O)c1c(O)c([C@@H]2O[C@H](CO)[C@@H](O)[C@H](O)[C@H]2O)c(O)c([C@@H]2O[C@H](CO)[C@@H](O)[C@H](O)[C@H]2O)c1O` registered its Activity at 7.78%

====

- Test system: Rattus norvegicus
- procedureSummary: Antihyperglycemic activity against streptozotocin-induced Sprague-Dawley albino rat diabetic model assessed as area under the 0 to 24 hrs blood glucose response curve (0-24 hrs AUC) at 25 mg/kg, po after 48 hrs by glucometer
- Type: functional
measurementName: Activity

>>> df
                                   compound  measurementname  value
0  O=C1c2c(cc(O)c([C@@H]3O[C@H](CO)[C@@H](O)[C@H](O)[C@H]3O)c2O)OC(c2ccc(O)c(O)c2)C1O (some centres undefined)         Activity  12.8%
1  O=c1cc(-c2ccc(O)c(O)c2)oc2c([C@@H]3O[C@H](CO)[C@@H](O)[C@H](O)[C@H]3O)c(O)ccc12         Activity  16.1%
2  O=C1CC(c2ccc(O)cc2)Oc2cc(O)c([C@@H]3O[C@H](CO)[C@@H](O)[C@H](O)[C@H]3O)c(O)c21 (some centres undefined)         Activity  15.1%

Now look at this one.
With Rattus norvegicus as the test system, O=C1c2c(cc(O)c([C@@H]3O[C@H](CO)[C@@H](O)[C@H](O)[C@H]3O)c2O)OC(c2ccc(O)cc2)C1O (some centres undefined) showed Activity of 23.8%

Every entry's value here was drawn from ChEMBL document CHEMBL1641563.
